# target: Gal(b1-3)GlcNAc(a1-3)Gal(b1-4)GlcNAc
# assay.remarks: glycan array binding signal (z-score within array); higher = stronger binding
# stated.conditions: glycan notation: IUPAC condensed, linker removed
The sample as a whole holds a higher share of the strongest signals than the screen did.
readout.name: glycan array binding signal (z-score)
Respond numerically, and do not add a unit to the figure.

Consider the worked cases shown below.
MGL (Homo sapiens), Q8IUN9 (protein) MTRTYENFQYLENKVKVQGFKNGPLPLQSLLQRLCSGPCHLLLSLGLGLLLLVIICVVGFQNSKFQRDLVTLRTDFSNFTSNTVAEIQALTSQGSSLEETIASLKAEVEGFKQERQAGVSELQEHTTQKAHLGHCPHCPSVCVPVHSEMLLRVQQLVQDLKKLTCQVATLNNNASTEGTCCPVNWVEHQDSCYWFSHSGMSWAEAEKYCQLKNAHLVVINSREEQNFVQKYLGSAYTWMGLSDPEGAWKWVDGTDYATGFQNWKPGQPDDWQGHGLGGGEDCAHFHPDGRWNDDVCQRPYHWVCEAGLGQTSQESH : -0.245
Si Bti9 1b-HA (Solanum lycopersicum) (protein) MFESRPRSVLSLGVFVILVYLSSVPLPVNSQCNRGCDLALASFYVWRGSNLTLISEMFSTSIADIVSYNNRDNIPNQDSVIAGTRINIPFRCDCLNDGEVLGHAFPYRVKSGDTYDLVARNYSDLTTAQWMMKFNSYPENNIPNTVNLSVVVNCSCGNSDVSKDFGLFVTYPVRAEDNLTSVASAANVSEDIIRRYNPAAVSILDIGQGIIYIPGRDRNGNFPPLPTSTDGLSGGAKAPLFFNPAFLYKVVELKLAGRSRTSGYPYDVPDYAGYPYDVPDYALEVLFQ : -0.16
rCNL (Clitocybe nebularis), B2ZRS9 (protein) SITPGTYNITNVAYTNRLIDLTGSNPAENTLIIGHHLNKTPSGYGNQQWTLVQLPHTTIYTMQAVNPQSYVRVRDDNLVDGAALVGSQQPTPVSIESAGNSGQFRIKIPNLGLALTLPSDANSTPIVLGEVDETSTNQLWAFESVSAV : -0.21
CGL (Crenomytilus grayanus), H2FH31 (protein) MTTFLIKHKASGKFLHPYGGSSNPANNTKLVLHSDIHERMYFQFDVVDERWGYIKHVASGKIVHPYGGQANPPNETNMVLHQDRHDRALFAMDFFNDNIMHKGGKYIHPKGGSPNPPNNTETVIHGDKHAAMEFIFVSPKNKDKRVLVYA : 0.396
SP15308A-bot-339-19-339 (Bacteroides ovatus) (protein) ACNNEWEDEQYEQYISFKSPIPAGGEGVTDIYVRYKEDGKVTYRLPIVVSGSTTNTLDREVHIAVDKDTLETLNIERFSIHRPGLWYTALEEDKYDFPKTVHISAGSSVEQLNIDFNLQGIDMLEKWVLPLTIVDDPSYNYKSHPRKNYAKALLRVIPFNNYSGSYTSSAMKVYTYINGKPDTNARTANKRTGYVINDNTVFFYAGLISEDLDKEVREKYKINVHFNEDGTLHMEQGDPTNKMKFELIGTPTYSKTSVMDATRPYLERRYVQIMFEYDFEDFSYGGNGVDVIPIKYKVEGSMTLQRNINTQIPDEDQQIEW : 0.217

[Q] Sample OS9 (Arabidopsis thaliana) (protein) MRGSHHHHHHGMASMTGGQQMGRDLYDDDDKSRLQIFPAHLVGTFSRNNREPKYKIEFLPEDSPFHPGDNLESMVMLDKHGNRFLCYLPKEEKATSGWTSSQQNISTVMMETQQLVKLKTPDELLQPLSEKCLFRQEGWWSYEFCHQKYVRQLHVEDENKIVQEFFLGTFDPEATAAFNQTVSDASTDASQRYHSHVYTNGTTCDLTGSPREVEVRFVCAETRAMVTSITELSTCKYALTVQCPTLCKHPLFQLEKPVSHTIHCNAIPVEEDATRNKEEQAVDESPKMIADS — what was its glycan array binding signal (z-score)?
[A] -1.06

[Q] Param item: GNL (Galanthus nivalis) (protein) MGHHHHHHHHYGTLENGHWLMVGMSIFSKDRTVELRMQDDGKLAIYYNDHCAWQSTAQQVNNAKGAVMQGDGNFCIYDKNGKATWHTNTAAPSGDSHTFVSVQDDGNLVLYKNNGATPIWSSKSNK
[A] -0.174
